Test system: CCRIS mutagenicity, Ames/micronucleus/aberration tests
Experiment: CCRIS mutagenicity studies
Details: Test System: AMES SALMONELLA TYPHIMURIUM; Strain/Indicator: TA100; Metabolic Activation: NONE; Method: STANDARD PLATE
The source made the active and inactive calls. How the calls were made is not given here.

compound.string | mutagenic call
Cc1c(N(C)CS(=O)(=O)O)c(=O)n(-c2ccccc2)n1C | inactive; negative
Cc1ccc2c(C)c3ccccc3c(C)c2c1 | inactive; negative
CCOC(=O)c1ccc(N(O)C=O)cc1 | inactive; negative

----------
System: CCRIS mutagenicity, Ames/micronucleus/aberration tests
Experiment: CCRIS mutagenicity studies
Conditions: Test System: AMES SALMONELLA TYPHIMURIUM; Strain/Indicator: TA98; Metabolic Activation: RAT, LIVER, S-9, AROCLOR 1254; Method: STANDARD PLATE
The source made the active and inactive calls. How the calls were made is not given here.
Log the outcome using a class from active, inactive

Ask | Recorded test call requested for `CNCCC=C1c2ccccc2CCc2ccccc21`
Reply | inactive

Ask | For `CC1=CC=C(C(C)C)CC1` , which call appears in the assay record?
Reply | inactive

Ask | For `CCC/C=N/O` , which call appears in the assay record?
Reply | inactive

Ask | For `CCCOc1cc(N=Nc2ccc(N(CCO)CCO)cc2)ccc1N=Nc1c(S(=O)(=O)O)cc2ccc(N)cc2c1O` , which call appears in the assay record?
Reply | active

Ask | Call for entry `Cc1ccc2c(C)c3ccccc3c(C)c2c1` :
Reply | active

Ask | Please let me know the test result on file for `CCc1cccc(CC)c1N` .
Reply | active

Ask | Record lookup: outcome of this test for `N=c1c2ncn(C(c3ccccc3)c3ccccc3)c2ncn1O` ?
Reply | active

Ask | Answer briefly: the call reported for `COc1ccc([C@H]2O[C@H]2C(=O)c2ccccc2)cc1` in this assay.
Reply | inactive

Ask | I'd appreciate the recorded outcome for C[C@@H]1Cc2c(Cl)cc(C(=O)NC(Cc3ccccc3)C(=O)O)c(O)c2C(=O)O1 (some centres undefined) from this test.
Reply | inactive

Ask | Fill in: this test's call for CC(C)(C)NCC(O)COc1ccccc1C1=CCCC1 (centres undefined) is ___
Reply | inactive

Ask | Please indicate how the test categorized `CC(=O)N(OC(=O)c1ccccc1)c1ccc2c(c1)Cc1ccccc1-2` .
Reply | active

Ask | Query: recorded result category for `O=C(c1ccccc1)N(O)c1ccc2c(c1)Cc1ccccc1-2` in this test
Reply | active

Ask | Test call for this compound, please: `CCCCCCCCCCCCCCCCCCO`
Reply | inactive

Ask | What was the test verdict on `Clc1cccnc1Cl` ?
Reply | inactive

Ask | Give the logged outcome of this assay for the following compound: `COc1cc(O)c2c(c1)C(=O)c1cc(C)cc(O)c1C2=O`
Reply | inactive

Ask | Any idea what this test logged for `CCCOC(=O)c1cc(O)c(O)c(O)c1` ?
Reply | inactive

Ask | Answer briefly: the call reported for `Cn1cnc2c(NO)ncnc21` in this assay.
Reply | active

Ask | For `CSC[C@H](NC(=O)COc1cccc2cnccc12)C(=O)N[C@@H](Cc1ccccc1)[C@H](O)C(=O)N1CSC[C@H]1C(=O)NC(C)(C)C` , what call appears in the results of this test?
Reply | inactive

Ask | For `O=[N+]([O-])c1cccc(OS(=O)(=O)c2cccc3cccnc23)c1` , what call appears in the results of this test?
Reply | active

Ask | Dear all, I need the recorded test outcome for `Nc1ccc(N)c2c1C(=O)c1cccc([N+](=O)[O-])c1C2=O` , thank you.
Reply | active

Ask | Test call, this compound: `Nc1cc(Cl)c(Cl)c(Cl)c1`
Reply | inactive

Ask | What is the recorded call for this compound in the test? CCC12OC1(C(=O)OC)C(=O)NC2(C)O (centres undefined)
Reply | active

Ask | Kindly provide the recorded test outcome for the following compound: `O=c1[nH][nH]c2ccccc12`
Reply | inactive

Ask | What was the test verdict on `Nc1c2ccccc2nc2ccccc12` ?
Reply | inactive

Ask | Hi, do you know how `ClC(Cl)C(Cl)Cl` came out in this test?
Reply | active

Ask | Tell me the recorded outcome of this test for `CCCCOc1cc(N=Nc2ccc(NCCO)cc2NCCO)ccc1N=Nc1c(S(=O)(=O)O)cc2ccc(N)cc2c1O` .
Reply | active

Ask | Returns: the outcome recorded for `CCC(=O)Nc1ccc(Cl)c(Cl)c1` in this assay.
Reply | inactive

Ask | GET /call?item= `O=C(O)COc1cc(Cl)c(Cl)cc1Cl` returns the recorded outcome of this test.
Reply | inactive

Ask | Fill in: this test's call for `COc1cc(N=Nc2ccc(N)cc2)c(C)cc1N=Nc1c(S(=O)(=O)O)cc2ccc(N)cc2c1O` is ___
Reply | active

Ask | I'd appreciate the recorded outcome for `N#CCCl` from this test.
Reply | inactive

Ask | What is the recorded call for this compound in the test? `CC1=Nc2ccccc2C1(C)C`
Reply | inactive

Ask | What classification did `C=C(C)c1ccc(C)c2ccc(CO)c-2c1` end up with in this test?
Reply | active

Ask | Test call, this compound: `O=c1[nH]c(=O)n([C@H]2C[C@H](O)[C@@H](CO)O2)cc1CCCl`
Reply | inactive

Ask | Could you kindly confirm the outcome this assay logged for `CC(C)(C)NC[C@@H](O)COc1ccccc1C1CCCC1` ?
Reply | active

Ask | Assay outcome for `O=C1CN=C(c2ccccc2)c2cc([N+](=O)[O-])ccc2N1` : what was it?
Reply | inactive

Ask | Per the assay record, what outcome was assigned to `Cc1cccc(C)c1C` ?
Reply | inactive

Ask | What classification did `Cc1ncc([N+](=O)[O-])n1C` end up with in this test?
Reply | active

Ask | Please share the test call associated with CCCCC(CC)COC(=O)c1ccccc1C(=O)OCC(CC)CCCC (centres undefined) .
Reply | inactive

Ask | Per the records of this test, what outcome belongs to `S=C([S-])NCCNC(=S)[S-].[Zn+2]` ?
Reply | inactive

Ask | Any idea what this test logged for `c1ccc2cc3c(ccc4ccncc43)cc2c1` ?
Reply | active

Ask | State the result this test recorded for `NCCN1CCNCC1` .
Reply | inactive

Ask | Please let me know the test result on file for `O=C1CCC(=O)N1c1cc(Cl)cc(Cl)c1` .
Reply | inactive

Ask | Just curious, what result did `O=C(/C=C/c1ccccc1)c1ccc(Br)cc1` get here?
Reply | inactive

Ask | Which outcome did this test record for the compound `c1ccc2nc3ccccc3cc2c1` ?
Reply | inactive
